- System: SF-295
- experimental details: NCI tumour cell line growth inhibition, 48 h
Calls of active or inactive are those of the source. Rule as the data show it: active = GI50 up to about 1.1 µM and inactive = higher.
Consider the following molecules and their measured GI50 readings.

# molecule, readout kind, result
records = [
    ("O=C(/C=C/c1cccc(Br)c1)c1ccc(Cl)cc1", "GI50", "17.5 µM (inactive)"),
    ("COc1cc2noc(-c3ccccc3)c2cc1OC", "GI50", "19 µM (inactive)"),
    ("CCCCCCOc1ccc(NC2=C(Cl)C(=O)c3ncccc3C2=O)cc1", "GI50", "1.96 µM (inactive)"),
]

Inquiry: Could you tell me which GI50 is on file for O=S(=O)(O)c1ccc(/N=N/c2ccccc2)cc1 ?
Reply text: > 100 µM (inactive)

Inquiry: Entry to check: O=[N+]([O-])c1ccc(-c2ccc(/C=N/n3c(S)nnc3-c3ccc(Cl)cc3)o2)cc1
Reply text: 24.1 µM (inactive)

Inquiry: # repeat for O=C(O)C1CCCCN1C(=O)Cc1c[nH]c2ccccc12 (configuration not stated)
Reply text: > 100 µM (inactive)

Inquiry: Note, next up: N#C/C(=C\N1CCNC1=S)C(=O)c1ccc2ccccc2c1
Reply text: > 100 µM (inactive)
